System: Nuclear hormone receptor DAF-12 (Heterodera glycines), GAL4 fusion
PROTOCOL SUMMARY: H. glycines DAF-12 receptor agonists, primary screen, cell-based, luminescence, HEK293, GAL4 fusion, UAS-luciferase (AID 687014);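 further: 0% = DMSO wells and 100% = sodium butyrate wells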
CONDITION PARAMETERS: HEK293 GAL4-hgDAF12 UAS-luciferase reporter, agonist luminescence; at 6.8 µM; stronger effect = higher value; normalized to butyrate control
The campaign covered roughly 370,000 compounds. About 6,800 (1.8%) were called active. Shown is part of a subset that was picked to be rich in actives.
The reader will find reported activation values listed item by item below.

MOLECULE	MEASURED ON	UNIT OF MEASURE	activation
COC(=O)c1cc2c(c3c4cc(F)ccc4n(S(=O)(=O)c4ccccc4)c13)C(=O)N(Cc1ccccc1OC)C2	Nuclear hormone receptor DAF-12 (Heterodera glycines), GAL4 fusion	%	0.57
CCN(CC)C(=O)CC[C@@H]1CC[C@]2(CCCN(S(=O)(=O)C3CCCCC3)C2)O1	Nuclear hormone receptor DAF-12 (Heterodera glycines), GAL4 fusion	%	0.45
O=C(NC1CC1)c1ccc(-c2ccccc2)cc1	Nuclear hormone receptor DAF-12 (Heterodera glycines), GAL4 fusion	%	9.69
Cc1ccc(-n2cc3ccc([N+](=O)[O-])cc3n2)cc1	Nuclear hormone receptor DAF-12 (Heterodera glycines), GAL4 fusion	%	17.1
O=C(NCCC1=CCCCC1)C1CCN(S(=O)(=O)c2ccc(Cl)s2)CC1	Nuclear hormone receptor DAF-12 (Heterodera glycines), GAL4 fusion	%	-1.78
C[C@H]1[C@H](NC(=O)c2cccc(N(C)C)c2)CC[C@@]23CCCN2C(=O)CCC[C@@H]13	Nuclear hormone receptor DAF-12 (Heterodera glycines), GAL4 fusion	%	4.78
O=C(NC1CCCCCCC1)c1cccs1	Nuclear hormone receptor DAF-12 (Heterodera glycines), GAL4 fusion	%	2.58
O=S1(=O)c2ccc(N3CCN(Cc4ccccc4F)CC3)cc2Oc2ccccc2CN1Cc1cn(Cc2ccc(Cl)cc2)nn1	Nuclear hormone receptor DAF-12 (Heterodera glycines), GAL4 fusion	%	0.48
O=C(Nc1cccc(O)c1)c1ccc(C(=O)c2ccccc2)o1	Nuclear hormone receptor DAF-12 (Heterodera glycines), GAL4 fusion	%	15.9
Cc1cnc(NC(=O)c2ccccn2)s1	Nuclear hormone receptor DAF-12 (Heterodera glycines), GAL4 fusion	%	16.5
Cc1cc(Cl)ccc1-c1nc(NCCN(C)C)nc2ccsc12	Nuclear hormone receptor DAF-12 (Heterodera glycines), GAL4 fusion	%	1.09
CCC(=O)Nc1sc(C(=O)Nc2ccccc2)c(C)c1C(=O)OC	Nuclear hormone receptor DAF-12 (Heterodera glycines), GAL4 fusion	%	13.4
Cn1c(CC2Sc3ccccc3NC2=O)nnc1SCC(=O)c1ccc(Cl)cc1 (stereo not given)	Nuclear hormone receptor DAF-12 (Heterodera glycines), GAL4 fusion	%	2.7
CCCCOCC1CN(CCCC)S(=O)(=O)c2c(Oc3ccc(F)cc3)cccc2O1 (stereo not given)	Nuclear hormone receptor DAF-12 (Heterodera glycines), GAL4 fusion	%	3.59
Cc1ccnc(N2C(=O)c3ccc([N+](=O)[O-])cc3C2=O)c1	Nuclear hormone receptor DAF-12 (Heterodera glycines), GAL4 fusion	%	0.65
O=S1(=O)c2c(cccc2N2CCCCC2)O[C@H](COCc2ccccc2)CN1C1CC1	Nuclear hormone receptor DAF-12 (Heterodera glycines), GAL4 fusion	%	-1.38
O=C(NC1CCCC1)c1cc(-c2ccccc2)on1	Nuclear hormone receptor DAF-12 (Heterodera glycines), GAL4 fusion	%	36.2
Cc1cccc(NC(=O)c2cccc(C(=O)Nc3cccc(C)c3C)n2)c1C	Nuclear hormone receptor DAF-12 (Heterodera glycines), GAL4 fusion	%	-1.93
O=C(O)C1CCCN1S(=O)(=O)c1ccc(Br)cc1 (stereo not given)	Nuclear hormone receptor DAF-12 (Heterodera glycines), GAL4 fusion	%	0.88
COCCCNC(=O)C[C@H]1C[C@@]2(C(=O)OC)C(=C[C@H](C(C)(C)C)O[C@@H]2C)N(Cc2ccc(Cl)cc2Cl)C1=O	Nuclear hormone receptor DAF-12 (Heterodera glycines), GAL4 fusion	%	-0.78
CC(Sc1nnc(Cc2ccc([N+](=O)[O-])cc2)o1)C(N)=O (stereo not given)	Nuclear hormone receptor DAF-12 (Heterodera glycines), GAL4 fusion	%	-0.65
C#CCCN([C@H](C(=O)OC)C(C)C)S(=O)(=O)c1ccc(F)cc1Br	Nuclear hormone receptor DAF-12 (Heterodera glycines), GAL4 fusion	%	2.22
Cc1cnc(NC(=O)Cn2cnc3c2c(=O)n(C)c(=O)n3C)s1	Nuclear hormone receptor DAF-12 (Heterodera glycines), GAL4 fusion	%	-0.21
CC(=O)N1CCCN(C2=Nc3ccccc3Sc3ccccc32)CC1	Nuclear hormone receptor DAF-12 (Heterodera glycines), GAL4 fusion	%	-3.68
Cc1ccc(NN=C2C(=O)OC(C)(C)OC2=O)c(C)c1	Nuclear hormone receptor DAF-12 (Heterodera glycines), GAL4 fusion	%	11.5
COc1cc(/C=C/C(=O)O)cc(S(=O)(=O)Nc2ccccc2SC)c1OC	Nuclear hormone receptor DAF-12 (Heterodera glycines), GAL4 fusion	%	1.71
CCn1c(NC(=O)c2nn(C)cc2Br)nc2ccccc21	Nuclear hormone receptor DAF-12 (Heterodera glycines), GAL4 fusion	%	-4.58
COC(=O)c1sc(NC(=O)COC(=O)C2CCC2)c(C(=O)OC)c1C	Nuclear hormone receptor DAF-12 (Heterodera glycines), GAL4 fusion	%	0.97
O=C(OCc1ccc(-c2ccccc2)cc1)c1cccc(O)c1	Nuclear hormone receptor DAF-12 (Heterodera glycines), GAL4 fusion	%	7.53
CN1CCCc2nc(-c3ccccc3)ccc21	Nuclear hormone receptor DAF-12 (Heterodera glycines), GAL4 fusion	%	7.25
O=c1c2cc([N+](=O)[O-])ccc2nc2n1CCC2	Nuclear hormone receptor DAF-12 (Heterodera glycines), GAL4 fusion	%	-2.97
Cc1cnc(NC(=O)c2ccc(Cl)nc2)s1	Nuclear hormone receptor DAF-12 (Heterodera glycines), GAL4 fusion	%	12.4
Cn1c(NC(=O)c2ccccc2)nc2ccccc21	Nuclear hormone receptor DAF-12 (Heterodera glycines), GAL4 fusion	%	15.2
O=C(NC1=CC(=O)c2ccccc2C1=O)c1ccccc1	Nuclear hormone receptor DAF-12 (Heterodera glycines), GAL4 fusion	%	-6.53
C=CCN=C1NC(c2ccccc2)C(C(=O)OC)=C(C)N1Cc1ccc(C(F)(F)F)cc1 (stereo not given)	Nuclear hormone receptor DAF-12 (Heterodera glycines), GAL4 fusion	%	0.51
CCC(C(=O)Nc1c(C)cccc1C)n1c(-c2cc(C)cs2)nc2ccccc21 (stereo not given)	Nuclear hormone receptor DAF-12 (Heterodera glycines), GAL4 fusion	%	2.55
O=C(C(=O)N1CCC(CNC(=O)c2cccnc2Cl)CC1)c1cccs1	Nuclear hormone receptor DAF-12 (Heterodera glycines), GAL4 fusion	%	1.44
CCc1cc(C(=O)Nc2nnc(C3CC3)s2)sc1C	Nuclear hormone receptor DAF-12 (Heterodera glycines), GAL4 fusion	%	1.89
Cc1ccc(C)c(CN2CCC(CNC(=O)C3CCCN(c4ncnc5c4nc4n5CCCCC4)C3)CC2)c1 (stereo not given)	Nuclear hormone receptor DAF-12 (Heterodera glycines), GAL4 fusion	%	-0.85
CCOC(=O)C1=C(C)NC2=C(C(=O)CC(C)(C)C2)C1c1ccc2c(c1)OCO2 (stereo not given)	Nuclear hormone receptor DAF-12 (Heterodera glycines), GAL4 fusion	%	-2.39
